# Target Of Assay: T1, 4H754-bA
# T1 chain: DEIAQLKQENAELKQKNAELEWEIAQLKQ
# Assay Info: two-hybrid library CCNG1;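 also: natural log of median RNA to DNA barcode read ratio; higher means stronger binding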
Value Type: interaction score

1) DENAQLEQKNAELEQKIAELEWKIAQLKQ [4H1446-bA] :: -0.817
2) DEIAQLKQENAELEQKIAELKWKNAQLEQ [4H687-bA] :: -0.491
3) DEIAQLKQENAELEQKIAELKWENAQLEQ [4H683-bA] :: -0.665
4) DEIAQLKQEIAELKQENAELKWKNAQLEQ [4H607-bA] :: -0.503
5) DEIAQLKQEIAELEQKNAELEWKNAQLKQ [4H568-bA] :: -0.527
6) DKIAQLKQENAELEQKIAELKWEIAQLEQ [4H2729-bA] :: -0.709
7) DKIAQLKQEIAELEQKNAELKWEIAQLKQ [4H2618-bA] :: -0.396
8) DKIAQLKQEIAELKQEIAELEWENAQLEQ [4H2627-bA] :: -1.42
9) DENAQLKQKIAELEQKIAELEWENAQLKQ [4H1828-bA] :: -1.2
10) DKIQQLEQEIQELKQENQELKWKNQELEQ [4H2143-bN] :: 0.173
11) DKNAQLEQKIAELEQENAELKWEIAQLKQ [4H3354-bA] :: -0.511
12) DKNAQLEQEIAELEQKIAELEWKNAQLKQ [4H3112-bA] :: -0.483
13) DEIAQLKQENAELKQKNAELEWEIAQLKQ [4H754-bA] :: 1.57
14) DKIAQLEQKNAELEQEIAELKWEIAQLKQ [4H2442-bA] :: 0.0444
15) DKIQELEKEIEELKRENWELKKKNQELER [4H2143-bH] :: -0.871
16) DKNAQLKQENAELKQEIAELEWKIAQLKQ [4H3782-bA] :: -0.898
17) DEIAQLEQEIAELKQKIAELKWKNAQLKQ [4H112-bA] :: -0.627
18) DEIAQLEQEIAELKQEIAELEWKNAQLKQ [4H72-bA] :: -0.173
19) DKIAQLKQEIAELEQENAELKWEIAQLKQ [4H2586-bA] :: -1.06
20) DEIAQLEQKIAELKQENAELEWEIAQLKQ [4H338-bA] :: -0.95
21) DKNAQLKQKNAELEQKIAELEWEIAQLEQ [4H4001-bA] :: -1.03
22) DKIAQLKQKNAELKQEIAELEWEIAQLKQ [4H3010-bA] :: -0.693
23) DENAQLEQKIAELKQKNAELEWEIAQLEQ [4H1393-bA] :: -1.58
24) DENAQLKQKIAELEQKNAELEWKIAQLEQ [4H1845-bA] :: -0.405
25) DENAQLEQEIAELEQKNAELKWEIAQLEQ [4H1081-bA] :: -0.461
26) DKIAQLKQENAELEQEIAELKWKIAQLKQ [4H2702-bA] :: -1.37
27) DEIAQLEQKNAELKQEIAELKWEIAQLEQ [4H457-bA] :: -1.54
